Target: AChE in neural stem cell spheroids (Homo sapiens)
Sequence (P22303 32-614): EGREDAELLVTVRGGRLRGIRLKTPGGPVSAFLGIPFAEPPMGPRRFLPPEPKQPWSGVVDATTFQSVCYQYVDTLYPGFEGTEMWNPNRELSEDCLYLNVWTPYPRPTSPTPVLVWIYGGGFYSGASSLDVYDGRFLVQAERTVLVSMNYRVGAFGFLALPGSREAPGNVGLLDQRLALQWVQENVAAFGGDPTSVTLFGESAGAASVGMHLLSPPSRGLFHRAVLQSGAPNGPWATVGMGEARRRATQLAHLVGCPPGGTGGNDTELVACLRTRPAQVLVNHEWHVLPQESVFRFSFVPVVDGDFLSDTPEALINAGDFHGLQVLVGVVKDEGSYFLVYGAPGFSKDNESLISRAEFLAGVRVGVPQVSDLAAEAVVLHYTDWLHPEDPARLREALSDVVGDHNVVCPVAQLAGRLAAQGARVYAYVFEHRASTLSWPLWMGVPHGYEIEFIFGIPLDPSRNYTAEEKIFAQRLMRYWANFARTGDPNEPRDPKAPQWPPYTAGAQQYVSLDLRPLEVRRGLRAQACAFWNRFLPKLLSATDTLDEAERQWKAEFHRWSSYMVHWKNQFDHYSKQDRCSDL
Assay: cell-based
Conditions: potency (IC50), Neural stem cell spheroid (24 h)
pIC50: −log10 of the molar value. Structures can show the parent of a compound that is named as a salt.
Could you label it met if measured pIC50 is 5 or higher, and not met otherwise?

COMPOUND	TARGET	LABEL_VALUE
CCOP(=S)(OCC)OC(Cl)C(Cl)(Cl)Cl (stereo not drawn)	AChE in neural stem cell spheroids (Homo sapiens)	not met
CCOP(=S)(OCC)SCSC(C)(C)C	AChE in neural stem cell spheroids (Homo sapiens)	met
COP(N)(=S)Oc1ccccc1C(=O)OC(C)C (stereo not drawn)	AChE in neural stem cell spheroids (Homo sapiens)	not met
CCCCOc1ccc(C(=O)CCN2CCCCC2)cc1 [Dyclonine HCl, reference compound]	AChE in neural stem cell spheroids (Homo sapiens)	not met
CCOP(=S)(OCC)Oc1ccc2c(C)c(Cl)c(=O)oc2c1	AChE in neural stem cell spheroids (Homo sapiens)	not met
COP(=S)(Oc1cc(Cl)c(Br)cc1Cl)c1ccccc1 (stereo not drawn)	AChE in neural stem cell spheroids (Homo sapiens)	not met

Now for a further compound.
INPUT: Does pIC50 meet or surpass 5 for CCOP(=O)(OCC)Oc1cc(C)nc(C(C)C)n1 ?
OUTPUT: met
